Target: wild-type βAR ([Asp113]βAR) (Mesocricetus auratus)
Sequence (P04274 whole entry): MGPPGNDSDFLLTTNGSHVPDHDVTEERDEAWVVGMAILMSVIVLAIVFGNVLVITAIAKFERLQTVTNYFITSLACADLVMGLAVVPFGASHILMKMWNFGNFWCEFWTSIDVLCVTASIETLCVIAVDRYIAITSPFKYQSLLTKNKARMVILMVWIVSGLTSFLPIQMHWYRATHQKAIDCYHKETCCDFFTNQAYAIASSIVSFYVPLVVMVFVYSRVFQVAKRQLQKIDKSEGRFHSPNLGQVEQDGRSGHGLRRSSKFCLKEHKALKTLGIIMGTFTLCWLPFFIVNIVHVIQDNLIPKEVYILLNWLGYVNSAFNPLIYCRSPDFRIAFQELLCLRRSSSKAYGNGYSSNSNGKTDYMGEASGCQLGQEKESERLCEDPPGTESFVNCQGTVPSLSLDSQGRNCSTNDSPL
Experiment: Adenylyl cyclase stimulation in membranes of cell lines expressing the receptor
Conditions: (Asp^113)βAR; percentage of maximal stimulation by 10 mM NaF; maximum concentration 10⁻³ M; Table 3
Reported %NaF values for the following compounds.
Report the figure along with its unit, number first.

Look over these answered cases.
Compound | %NaF
CC(C)NCC(O)COc1ccc(-c2ncc[nH]2)cc1 (centres unmarked) | 0%
Cc1ccc(OCC(O)CNC(C)C)c2c1CCC2 (centres unmarked) | 0%
CC(C)NCC(O)COc1ccccc1 (centres unmarked) | 0%

Prompt line: // %NaF lookup, key: CC(C)NCC(O)COc1ccccc1N1CCOCC1 (centres unmarked)
Response line: 0%

Prompt line: // %NaF lookup, key: CC(C)NCC(O)COc1cccc2[nH]ccc12 (centres unmarked)
Response line: 0%

Origin of the recorded values: patent EP0351921A2
